Test system: CU-ACC1
Test: area under concentration-response curve (viability) (AUC (a.u.)); higher = less active
Conditions: 48 h
Decide by area under concentration-response curve: equal to or exceeding 500 means Criterion met, less means Criterion not met.

* CC[C@H]1/C=C\C=C/C[C@@H](C)[C@H](O)[C@@](C)(O)C(=O)[C@@H](C)[C@H](O)[C@@H](C)C(=O)[C@@H](C)[C@H](O)[C@@H](C)/C=C/C(=O)O[C@@H]2[C@H](C)[C@H](CC1)O[C@]1(CC[C@H](C)[C@H](C[C@@H](C)O)O1)[C@H]2C | Criterion not met
* CC(C)c1onc(-c2c(Cl)cccc2Cl)c1COc1ccc(/C=C/c2cccc(C(=O)O)c2)c(Cl)c1 | Criterion not met
* CC#C[C@@H](CC(=O)O)c1ccc(OCc2cccc(-c3ccc(C(F)(F)F)cc3)c2)cc1 | Criterion not met
* COc1cccc(OCCCN)c1-c1cc(Nc2cnc(C#N)cn2)n[nH]1 | Criterion not met

Req: Would you say COc1ccc([C@@H](O)[C@@H](C)Oc2ccc([C@H]3O[C@H](c4ccc(O[C@H](C)[C@H](O)c5ccc(OC)c(OC)c5)c(OC)c4)[C@H](C)[C@H]3C)cc2OC)cc1OC shows area under concentration-response curve at minimum 500?
Resp: Criterion not met

Req: Can O=c1cc(O)c(Cl)c[nH]1 be said to have area under concentration-response curve at or above 500?
Resp: Criterion met

Req: Please check the record CN(C)CC(C)(C)CNc1nn2c(-c3ccccc3)nnc2cc1C1CCC1 and state if its area under concentration-response curve is at or above 500.
Resp: Criterion not met

Req: # check: area under concentration-response curve of c1cnc2cc3c(cc2n1)C1CNCC3C1 is greater than or equal to 500
Resp: Criterion met

----------
Test system: CU-ACC2
Test: area under concentration-response curve (viability) (AUC (a.u.)); higher = less active
Conditions: 48 h
Reported area under concentration-response curve values for the following molecules.
Could you keep your reply to the number by itself?

• CC[C@]12CC[C@H]3[C@@H](CCC/4=C/C(=O)CC[C@H]34)[C@@H]1CC[C@@]2(O)C#C = 614
• NC(=O)c1cnccn1 = 301
• N=C(N)NN.N=C(N)NN.O=S(=O)(O)O = 559
• CC(C)(C)NC(=O)[C@H]1CC[C@H]2[C@@H]3CC[C@H]4NC(=O)\C=C/[C@]4(C)[C@H]3CC[C@]12C = 622
• COc1ccc(C(=O)N2CCCC2=O)cc1 = 655
• CCC1(c2ccccc2)C(=O)NCNC1=O = 566
• CO[C@H]1C[C@@H]2CC[C@@H](C)[C@@](O)(O2)C(=O)C(=O)N2CCCC[C@H]2C(=O)O[C@H]([C@H](C)C[C@@H]2CC[C@@H](OP(C)(C)=O)[C@H](OC)C2)CC(=O)[C@H](C)/C=C(\C)[C@@H](O)[C@@H](OC)C(=O)[C@H](C)C[C@H](C)/C=C/C=C/C=C/1C = 536
• CNC(=O)c1cc(Oc2ccc3nc(N[C@@H]4CCCC[C@H]4O)sc3c2)ccn1 = 583
• Cc1noc(C)c1-c1ccc(-c2cc(C(N)=O)c(NC(N)=O)s2)c(O[C@H]2CCNC2)c1 = 471
• CCc1nc(C(N)=O)c(Nc2ccc(N3CCC(N4CCN(C)CC4)CC3)c(OC)c2)nc1NC1CCOCC1 = 477

Req: Query area under concentration-response curve for CC(C)NC(=O)N1CC[C@@H](C1)NC/2=N/C3=C(C=CC(=C3)F)N(CC(F)F)C4=C2C=C(Cl)C=C4
Resp: 656

Req: Consider the molecule COc1cc2ncn(-c3cc(OCc4ccccc4C(F)(F)F)c(C(N)=O)s3)c2cc1OC . State its measured area under concentration-response curve.
Resp: 606

Req: Kindly indicate its recorded area under concentration-response curve. Item: COc1ncc(Nc2ncc([C@H](C)N3CCN([S+](C)(=O)[O-])CC3)cc2-c2nc(C)nc(N)n2)cc1F
Resp: 473

Req: Identify area under concentration-response curve associated with the molecule COC(=O)c1ccc([C@H]2c3[nH]c4ccccc4c3C[C@H](C(=O)OC)N2C(=O)CCl)cc1
Resp: 360

Req: Please give the documented area under concentration-response curve of CCC(=O)[N-]S(=O)(=O)c1ccc(-c2c(-c3ccccc3)noc2C)cc1.[Na+]
Resp: 656

Req: Supply reported area under concentration-response curve belonging to this molecule: CCOc1cc2ncc(C#N)c(Nc3ccc(OCc4ccccn4)c(Cl)c3)c2cc1NC(=O)/C=C/CN(C)C
Resp: 572

Req: Hello, please tell me recorded area under concentration-response curve for this one: O=c1cc(O)c(Cl)c[nH]1
Resp: 641

Numbers sourced from the supplement of paper PMC10949913.
